# measured on: hNLRP3 (Homo sapiens, UniProt Q96P20)
# Construct: THP-1 cells were purchased from the American Type Culture Collection; host or cells: THP-1 cells, PMA-differentiated
# Sequence (Q96P20 whole entry): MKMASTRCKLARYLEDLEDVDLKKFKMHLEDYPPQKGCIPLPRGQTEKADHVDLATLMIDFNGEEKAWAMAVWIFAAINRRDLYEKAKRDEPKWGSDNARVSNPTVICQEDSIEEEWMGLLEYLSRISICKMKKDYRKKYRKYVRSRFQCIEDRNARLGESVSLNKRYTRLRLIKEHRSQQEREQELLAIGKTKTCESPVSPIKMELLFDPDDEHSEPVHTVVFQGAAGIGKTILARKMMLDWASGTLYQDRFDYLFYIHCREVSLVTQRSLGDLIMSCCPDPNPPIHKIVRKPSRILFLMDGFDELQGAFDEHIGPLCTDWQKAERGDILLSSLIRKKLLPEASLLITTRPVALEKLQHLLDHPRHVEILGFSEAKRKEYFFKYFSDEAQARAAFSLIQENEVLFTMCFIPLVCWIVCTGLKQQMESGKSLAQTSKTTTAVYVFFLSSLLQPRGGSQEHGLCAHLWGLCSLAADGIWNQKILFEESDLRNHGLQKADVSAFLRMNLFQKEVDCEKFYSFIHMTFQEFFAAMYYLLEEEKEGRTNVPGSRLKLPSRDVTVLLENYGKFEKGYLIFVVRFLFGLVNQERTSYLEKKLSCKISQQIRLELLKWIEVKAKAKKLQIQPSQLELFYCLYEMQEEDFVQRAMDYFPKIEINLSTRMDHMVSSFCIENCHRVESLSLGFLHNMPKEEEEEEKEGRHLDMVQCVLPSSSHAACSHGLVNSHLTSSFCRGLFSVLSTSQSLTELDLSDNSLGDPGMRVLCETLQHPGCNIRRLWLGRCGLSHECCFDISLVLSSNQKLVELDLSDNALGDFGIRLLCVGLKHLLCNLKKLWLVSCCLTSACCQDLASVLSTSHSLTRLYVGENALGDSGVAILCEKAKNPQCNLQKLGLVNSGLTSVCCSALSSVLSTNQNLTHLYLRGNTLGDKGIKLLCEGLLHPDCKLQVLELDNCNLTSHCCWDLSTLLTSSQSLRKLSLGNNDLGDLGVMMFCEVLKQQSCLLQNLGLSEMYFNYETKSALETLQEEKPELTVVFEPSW
# experiment: IL-1β production in PMA-differentiated THP-1 cells stimulated with gramicidin
# Type: cell-based
# details: gramicidin 5 μM, IL-1β in supernatant, Table 2
measurement kind: IC50

Q: Item O=C(Nc1c2c(cc3c1CCC3)CCC2)NS(=O)(=O)c1cc(C2(O)CC2)co1 has what recorded IC50?
Result: < 1 µM

Q: Item CC(C)c1ccc(C#N)c(C(C)C)c1NC(=O)NS(=O)(=O)c1cc(C(C)(C)O)cs1 has what recorded IC50?
Result: 1 to 5 µM

Q: Item CC(C)c1ccc2c(c1NC(=O)NS(=O)(=O)c1cc(C(C)(C)O)cs1)CCC2 has what recorded IC50?
Result: 15 to 35 µM

Q: Item N#Cc1c2c(c(NC(=O)NS(=O)(=O)c3cc(C4(O)CC4)cs3)c3c1CCC3)CCC2 has what recorded IC50?
Result: < 1 µM

* * *

# measured on: hNLRP3 (Homo sapiens, UniProt Q96P20)
# Construct: THP-1 cells were purchased from the American Type Culture Collection; host or cells: THP-1 cells, PMA-differentiated
# experiment: IL-1β production in PMA-differentiated THP-1 cells stimulated with gramicidin
# Assay type: cell-based
# details: gramicidin 5 μM, IL-1β in supernatant, Table 2
pIC50: −log10 of the molar value.
Overview of reported pIC50 across a group of compounds:

>>> reported_value("CC(C)c1cc(F)cc(C(C)C)c1NC(=O)NS(=O)(=O)c1cnc(C(C)(C)O)s1 [Compound 269]")
"5.30 to 6.00"

Q: Item CC(C)c1ccc(Cl)c(C(C)C)c1NC(=O)NS(=O)(=O)c1cnc(C(C)(C)O)s1 [Compound 271] has what recorded pIC50?
Result: 5.30 to 6.00

Q: Item CC(C)c1ccc(Cl)c(C(C)C)c1NC(=O)NS(=O)(=O)c1nc(C(C)(C)O)cs1 [Compound 144] has what recorded pIC50?
Result: 5.30 to 6.00

* * *

Overview of reported pIC50 across a group of compounds:
# measured on: hNLRP3 (Homo sapiens, UniProt Q96P20)
# Construct: THP-1 cells were purchased from the American Type Culture Collection; host or cells: THP-1 cells, PMA-differentiated
# experiment: IL-1β production in PMA-differentiated THP-1 cells stimulated with gramicidin
# Assay type: cell-based
# details: gramicidin 5 μM, IL-1β in supernatant, Table 2
pIC50: −log10 of the molar value.

Worked examples, 5 compounds total:
>>> reported_value("CC(C)c1ccc(F)c(C(C)C)c1NC(=O)NS(=O)(=O)c1cc(C2(O)CC2)cs1")
"> 6.00"
>>> reported_value("CC(C)c1cc(Cl)cc(C(C)C)c1NC(=O)NS(=O)(=O)c1cc(C(C)(C)O)c(Cl)s1")
"> 6.00"
>>> reported_value("CC(C)c1cccc(C(C)C)c1NC(=O)NS(=O)(=O)c1ncc(C(C)(C)O)s1 [Compound 227]")
"> 6.00"
>>> reported_value("CC(C)c1cc(Cl)cc(C(C)C)c1NC(=O)NS(=O)(=O)c1cc(C2(O)CC2)co1")
"> 6.00"
>>> reported_value("CCc1cc(F)cc(CC)c1NC(=O)NS(=O)(=O)c1cc(C(C)(C)O)cs1")
"5.30 to 6.00"

Q: Item CC(C)c1ccc(C#N)c(C(C)C)c1NC(=O)NS(=O)(=O)c1cc(C(C)(C)O)c(Cl)s1 has what recorded pIC50?
Result: 4.82 to 5.30

* * *

# measured on: hNLRP3 (Homo sapiens, UniProt Q96P20)
# Construct: THP-1 cells were purchased from the American Type Culture Collection; host or cells: THP-1 cells, PMA-differentiated
# experiment: IL-1β production in PMA-differentiated THP-1 cells stimulated with gramicidin
# Assay type: cell-based
# details: gramicidin 5 μM, IL-1β in supernatant, Table 2
pIC50: −log10 of the molar value.
measurement kind: pIC50

>>> reported_value("CC(C)c1cc(F)cc(C(C)C)c1NC(=O)NS(=O)(=O)c1ccc(C(C)(C)O)s1 [Compound 257]")
"> 6.00"
>>> reported_value("CC(C)(O)c1csc(S(=O)(=O)NC(=O)Nc2cccc3c2CCC3)c1 [Compound 191]")
"5.30 to 6.00"
>>> reported_value("O=C(Nc1c2c(cc3c1CCC3)CCC2)NS(=O)(=O)c1ncc(C2(O)CCCCC2)s1 [Compound 193]")
"5.30 to 6.00"
>>> reported_value("CC(C)c1cc(C#N)cc(C(C)C)c1NC(=O)NS(=O)(=O)c1cc(C(C)(C)O)cs1 [Compound 217]")
"> 6.00"
>>> reported_value("CC(C)c1cc(Cl)cc(C(C)C)c1NC(=O)NS(=O)(=O)c1nc(C(C)(C)O)cs1 [Compound 147]")
"5.30 to 6.00"

Q: Item Cc1nc(S(=O)(=O)NC(=O)Nc2c(C(C)C)cc(C#N)cc2C(C)C)sc1C(C)(C)O [Compound 155] has what recorded pIC50?
Result: 4.82 to 5.30

* * *

Overview of reported IC50 across a group of compounds:
# measured on: hNLRP3 (Homo sapiens, UniProt Q96P20)
# Construct: THP-1 cells were purchased from the American Type Culture Collection; host or cells: THP-1 cells, PMA-differentiated
# experiment: IL-1β production in PMA-differentiated THP-1 cells stimulated with gramicidin
# Assay type: cell-based
# details: gramicidin 5 μM, IL-1β in supernatant, Table 2

>>> reported_value("O=C(Nc1c2c(cc3c1CCC3)CCC2)NS(=O)(=O)c1ccc(C2(O)CC2)s1")
"< 1 µM"
>>> reported_value("CCc1ccc2c(c1NC(=O)NS(=O)(=O)c1cc(C(C)(C)O)cs1)CCC2")
"1 to 5 µM"

Please look at the following compound next.
Q: Item CC(C)c1ccc(Cl)c(C(C)C)c1NC(=O)NS(=O)(=O)c1cc(C(C)(C)O)c(Cl)s1 has what recorded IC50?
Result: 5 to 15 µM

* * *

# measured on: hNLRP3 (Homo sapiens, UniProt Q96P20)
# Construct: THP-1 cells were purchased from the American Type Culture Collection; host or cells: THP-1 cells, PMA-differentiated
# experiment: IL-1β production in PMA-differentiated THP-1 cells stimulated with gramicidin
# Type: cell-based
# details: gramicidin 5 μM, IL-1β in supernatant, Table 2
pIC50: −log10 of the molar value.
measurement kind: pIC50

Worked examples, 4 compounds total:
>>> reported_value("CC(C)c1cc(Cl)cc(C(C)C)c1NC(=O)NS(=O)(=O)c1ncc(C(C)(C)O)s1 [Compound 219]")
"> 6.00"
>>> reported_value("COc1ccc2c(c1NC(=O)NS(=O)(=O)c1ncc(C(C)(C)O)s1)CCC2 [Compound 182]")
"5.30 to 6.00"
>>> reported_value("Cc1sc(S(=O)(=O)NC(=O)Nc2c(C(C)C)cc(C#N)cc2C(C)C)cc1C(C)(C)O [Compound 162]")
"> 6.00"
>>> reported_value("CC(C)c1cccc(C(C)C)c1NC(=O)NS(=O)(=O)c1cnc(C(C)(C)O)s1 [Compound 270]")
"5.30 to 6.00"

Q: Item CC(C)(O)c1ccc(S(=O)(=O)NC(=O)Nc2c3c(c(Cl)c4c2CCC4)CCC3)s1 [Compound 189] has what recorded pIC50?
Result: > 6.00

* * *

# measured on: hNLRP3 (Homo sapiens)
# Construct: THP-1 cells were purchased from the American Type Culture Collection; host or cells: THP-1 cells, PMA-differentiated
# experiment: IL-1β production in PMA-differentiated THP-1 cells stimulated with gramicidin
# Format: cell-based
# details: gramicidin 5 μM, IL-1β in supernatant, Table 2
pIC50: −log10 of the molar value.
Overview of reported pIC50 across a group of compounds:

Worked examples, 8 compounds total:
>>> reported_value("O=C(Nc1c2c(c(F)c3c1CCC3)CCC2)NS(=O)(=O)c1ccc(C2(O)CC2)s1")
"> 6.00"
>>> reported_value("CCc1cc(Cl)cc(CC)c1NC(=O)NS(=O)(=O)c1ncc(C(C)(C)O)s1")
"4.82 to 5.30"
>>> reported_value("O=C(Nc1c2c(cc3c1CCC3)CCC2)NS(=O)(=O)c1ncc(C2(O)CCCC2)s1")
"> 6.00"
>>> reported_value("Cc1sc(S(=O)(=O)NC(=O)Nc2c(C(C)C)ccc(F)c2C(C)C)cc1C(C)(C)O")
"5.30 to 6.00"
>>> reported_value("CC(C)c1cc(C#N)cc(C(C)C)c1NC(=O)NS(=O)(=O)c1ncc(C(C)(C)O)s1")
"> 6.00"
>>> reported_value("CC(C)c1ccc(C#N)c(C(C)C)c1NC(=O)NS(=O)(=O)c1ncc(C(C)(C)O)s1")
"5.30 to 6.00"
>>> reported_value("CC(C)c1cc(C#N)cc(C(C)C)c1NC(=O)NS(=O)(=O)c1cnc(C(C)(C)O)s1")
"5.30 to 6.00"
>>> reported_value("CC(C)c1cc(C#N)cc(C(C)C)c1NC(=O)NS(=O)(=O)c1cc(C(C)(C)O)c(Cl)s1")
"> 6.00"

Q: What is its pIC50 for hNLRP3 (Homo sapiens)? Entry: CC(C)c1cc(C#N)cc(C(C)C)c1NC(=O)NS(=O)(=O)c1ccc(C2(O)CC2)s1
Result: 5.30 to 6.00

Q: What is its pIC50 for hNLRP3 (Homo sapiens)? Entry: CC(C)c1cc(C#N)cc(C(C)C)c1NC(=O)NS(=O)(=O)c1ccc(C(C)(C)O)s1
Result: > 6.00
